- ASSAY TARGET: recombinant human SYK (GST-hSYK fusion protein) (Homo sapiens, UniProt P43405)
- ASSAY: biochemical
- ASSAY CONDITIONS: rhSYK Activity, Table 115
pIC50: −log10 of the molar value.
ATTRIBUTE MEASURED: pIC50

Observe how each entry below is paired with its result.
>  <COMPOUND>
Cc1cc(Nc2nccc(C(F)(F)F)n2)cc(-c2cnc(-c3cnn(CCC#N)c3)s2)c1

>  <DATA VALUE>
> 7.00

$$$$
>  <COMPOUND>
Cc1cc(Nc2nccc(C(F)(F)F)n2)cc(-c2cnc(-c3cnn(CCCO)c3)s2)c1

>  <DATA VALUE>
> 7.00

$$$$
>  <COMPOUND>
Cc1cc(Nc2nccc(C(F)(F)F)n2)cc(-c2cnc(-c3cnn(C4CCOCC4)c3)s2)c1

>  <DATA VALUE>
> 7.00

$$$$
>  <COMPOUND>
Cc1cc(Nc2nccc(C(F)(F)F)n2)cc(-c2cnc(-c3cnn(CC4CNC(=O)O4)c3)s2)c1 (stereo not shown)

>  <DATA VALUE>
> 7.00

$$$$
>  <COMPOUND>
Cc1cc(Nc2nccc(C(F)(F)F)n2)cc(-c2cnc(-c3cnn(C[C@@H](O)CO)c3)s2)c1

>  <DATA VALUE>
> 7.00

$$$$
>  <COMPOUND>
Cc1cc(Nc2nccc(C(F)(F)F)n2)cc(-c2cnc(-c3cnn(CC(C)(C)O)c3)s2)c1

>  <DATA VALUE>
> 7.00

$$$$

--- query ---
Bench note: what pIC50 did Cc1cc(Nc2nccc(C(F)(F)F)n2)cc(-c2cnc(-c3cnn(C(CCO)C(=O)O)c3)s2)c1 (stereo not shown) show? > 7.00

###

- ASSAY TARGET: recombinant human SYK (GST-hSYK fusion protein) (Homo sapiens)
- ASSAY: biochemical
- ASSAY CONDITIONS: rhSYK Activity, Table 113A
pIC50: −log10 of the molar value.
Each record here notes measured pIC50.

Observe how each entry below is paired with its result.
>  <COMPOUND>
COC(=O)C1CCC(O)(c2ncc(-c3cc(C)cc(Nc4nccc(C)n4)c3)s2)CC1C (stereo not shown) [Example 113A-13]

>  <DATA VALUE>
6.00 to 7.00

$$$$
>  <COMPOUND>
Cc1cc(Nc2nccc(C(C)C)n2)cc(-c2cnc([C@]3(O)CC[C@@H](C(=O)O)[C@@H](C)C3)s2)c1 [Example 113A-26]

>  <DATA VALUE>
> 7.00

$$$$
>  <COMPOUND>
COCCOc1ccnc(Nc2cc(C)cc(-c3cnc(C4(O)CCC(C(=O)O)C(C)C4)s3)c2)n1 (stereo not shown) [Example 113A-38]

>  <DATA VALUE>
> 7.00

$$$$

Bench note: what pIC50 did COC(=O)[C@@H]1CC[C@@](O)(c2ncc(-c3cc(C)cc(Nc4nccc(OC)n4)c3)s2)CC1(C)C [Example 113A-55] show? > 7.00

###

- ASSAY TARGET: recombinant human SYK (GST-hSYK fusion protein) (Homo sapiens, UniProt P43405)
- ASSAY: biochemical
- ASSAY CONDITIONS: rhSYK Activity (IC50), recombinant human GST-SYK 5 pM, ATP 25 μM, biotinylated substrate peptide 250 nM, HTRF, 10-dose titration
ATTRIBUTE MEASURED: IC50

>  <COMPOUND>
Cc1cc(Nc2nccc(C(F)(F)F)n2)cc(-c2cnc(C(=O)NCC(C)(C)O)s2)c1 [Example 87A-11]

>  <IC50>
< 100 nM

$$$$
>  <COMPOUND>
Cc1cc(Nc2nccc(C(F)(F)F)n2)cc(-c2cnc(C3CCCCC3)s2)c1

>  <IC50>
100 to 1000 nM

$$$$
>  <COMPOUND>
Cc1cc(Nc2nccc(C(O)C3CC3)n2)cc(-c2cnc(C3(O)CCC(C(=O)O)C(C)(C)C3)s2)c1 (single isomer, unassigned) [Example 100A-18]

>  <IC50>
< 100 nM

$$$$
>  <COMPOUND>
Cc1cc(Nc2nccc(C(F)(F)F)n2)cc(-c2cnc(C(=O)NCC(C)O)s2)c1 (stereo not shown) [Example 87A-7]

>  <IC50>
< 100 nM

$$$$
>  <COMPOUND>
Cc1cc(Nc2nccc(C(F)(F)F)n2)cc(-c2cnc(-c3ccncc3)s2)c1

>  <IC50>
< 100 nM

$$$$

Bench note: what IC50 did Cc1cc(Nc2nccc(C(F)(F)F)n2)cc(-c2cnc(CN3CC(COP(C)(C)=O)C3)s2)c1 [Example 88B-16] show? < 100 nM
